target under test: NAD-dependent protein deacetylase sirtuin-1 (Homo sapiens, UniProt Q96EB6)
Sequence (Q96EB6 whole entry): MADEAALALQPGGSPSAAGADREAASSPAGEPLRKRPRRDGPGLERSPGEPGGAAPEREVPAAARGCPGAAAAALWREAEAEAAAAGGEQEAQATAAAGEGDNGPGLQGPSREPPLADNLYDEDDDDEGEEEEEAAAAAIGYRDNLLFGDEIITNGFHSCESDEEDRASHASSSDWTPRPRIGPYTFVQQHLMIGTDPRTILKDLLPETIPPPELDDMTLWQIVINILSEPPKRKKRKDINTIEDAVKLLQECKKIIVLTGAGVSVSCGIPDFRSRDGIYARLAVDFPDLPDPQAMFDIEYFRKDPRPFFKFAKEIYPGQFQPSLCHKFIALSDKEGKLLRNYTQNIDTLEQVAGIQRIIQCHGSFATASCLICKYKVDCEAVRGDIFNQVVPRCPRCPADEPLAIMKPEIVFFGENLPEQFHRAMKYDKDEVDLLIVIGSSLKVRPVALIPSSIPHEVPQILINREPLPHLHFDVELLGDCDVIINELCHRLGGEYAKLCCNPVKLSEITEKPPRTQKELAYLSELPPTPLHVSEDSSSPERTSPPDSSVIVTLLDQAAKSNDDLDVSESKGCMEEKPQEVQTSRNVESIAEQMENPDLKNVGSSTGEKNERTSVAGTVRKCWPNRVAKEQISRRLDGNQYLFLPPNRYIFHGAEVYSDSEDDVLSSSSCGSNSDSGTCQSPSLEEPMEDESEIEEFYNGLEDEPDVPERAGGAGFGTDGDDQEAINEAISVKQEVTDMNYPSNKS
procedure text: Inhibition of human recombinant SIRT1 by fluorimetric analysis

smi | target under test | measurement units | IC50
NC(=O)c1ccccc1Nc1cccc(/C=C/C(=O)O)c1 | NAD-dependent protein deacetylase sirtuin-1 (Homo sapiens, UniProt Q96EB6) | µM | 58
NC(=O)c1ccccc1Nc1cccc(CCO)c1 | NAD-dependent protein deacetylase sirtuin-1 (Homo sapiens, UniProt Q96EB6) | µM | 72
NC(=O)c1ccccc1Nc1cccc(-c2ccccc2)c1 | NAD-dependent protein deacetylase sirtuin-1 (Homo sapiens, UniProt Q96EB6) | µM | 52
NC(=O)c1ccccc1Nc1cccc(Sc2ccccc2)c1 | NAD-dependent protein deacetylase sirtuin-1 (Homo sapiens, UniProt Q96EB6) | µM | 89

---

Test system: Daudi
procedure text: Growth inhibition of human Daudi cells after 24 hrs by alamar blue assay
Format: functional
assay conditions: 72 h, in the assay text read “after 72 hrs” for “after 24 hrs”

smi | GI50
NC(=O)c1ccccc1Nc1cccc(CCO)c1 | > 100 µM
NC(=O)c1ccccc1Nc1cccc(/C=C/C(=O)O)c1 | > 100 µM
NC(=O)c1ccccc1Nc1cccc(CO)c1 | > 100 µM
